Target: GST-AMPKα2/ß1/γ1 complex (full-length human AMPKα2) (Homo sapiens, UniProt P54619+P54646+Q9Y478)
Sequence (P54646 whole entry): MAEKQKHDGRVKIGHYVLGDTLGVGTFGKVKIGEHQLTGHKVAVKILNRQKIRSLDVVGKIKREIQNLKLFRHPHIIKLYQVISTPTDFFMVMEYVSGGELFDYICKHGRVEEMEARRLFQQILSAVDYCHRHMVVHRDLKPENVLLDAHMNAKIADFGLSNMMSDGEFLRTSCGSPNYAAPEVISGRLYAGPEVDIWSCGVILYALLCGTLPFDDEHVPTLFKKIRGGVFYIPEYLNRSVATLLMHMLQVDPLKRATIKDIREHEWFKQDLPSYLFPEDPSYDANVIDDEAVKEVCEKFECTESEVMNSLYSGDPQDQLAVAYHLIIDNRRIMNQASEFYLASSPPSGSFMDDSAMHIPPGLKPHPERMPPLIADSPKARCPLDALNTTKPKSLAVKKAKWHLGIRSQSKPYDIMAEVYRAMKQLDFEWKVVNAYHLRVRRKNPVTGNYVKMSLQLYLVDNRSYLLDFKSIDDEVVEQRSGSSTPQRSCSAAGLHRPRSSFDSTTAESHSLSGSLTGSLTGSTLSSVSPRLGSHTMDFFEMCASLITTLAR
Sequence (Q9Y478 whole entry partner): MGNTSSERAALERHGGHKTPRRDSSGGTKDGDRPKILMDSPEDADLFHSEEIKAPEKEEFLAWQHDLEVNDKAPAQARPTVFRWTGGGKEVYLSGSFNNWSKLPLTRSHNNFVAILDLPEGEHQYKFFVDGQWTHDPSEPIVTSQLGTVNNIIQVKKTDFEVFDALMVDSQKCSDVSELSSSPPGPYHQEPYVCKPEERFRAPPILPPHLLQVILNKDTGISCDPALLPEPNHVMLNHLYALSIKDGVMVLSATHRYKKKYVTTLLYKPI
Sequence (P54619 whole entry partner): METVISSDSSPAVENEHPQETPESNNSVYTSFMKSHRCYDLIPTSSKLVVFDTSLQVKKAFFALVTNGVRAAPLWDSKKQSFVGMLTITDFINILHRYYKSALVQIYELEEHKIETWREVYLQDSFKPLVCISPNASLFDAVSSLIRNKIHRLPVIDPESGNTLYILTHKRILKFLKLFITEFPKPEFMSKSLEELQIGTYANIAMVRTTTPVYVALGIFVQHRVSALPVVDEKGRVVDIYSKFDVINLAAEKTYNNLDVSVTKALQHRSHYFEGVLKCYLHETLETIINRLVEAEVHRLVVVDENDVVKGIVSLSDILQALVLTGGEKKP
Assay: AMPK high ATP assay (TR-FRET-based AMPK activity inhibition assay)
Conditions: ATP concentration of 1 mM; median; read-out: AMPK high ATP assay IC50 [mol/l] (median)
Decide using IC50 alone. Strictly below 20 nM: YES. Equal to or above 20 nM: NO.

In: Consider "CC1=C(C#N)C(c2cc3c(NC(=O)c4ccc(OCCN5CCCC5)cc4Cl)n[nH]c3c(C)c2F)C(C#N)=C(C)N1C" . Does its IC50 lie strictly below 20 nM?
Out: YES

In: Consider "CC1=C(C#N)C(c2cc3c(NC(=O)c4cnn(CCN5CCCC5)c4C(F)(F)F)n[nH]c3c(C)c2F)C(C#N)=C(C)N1C" . Does its IC50 lie strictly below 20 nM?
Out: NO

In: Consider "CC1=C(C#N)C(c2cc3c(NC(=O)c4cn(C)nc4C(F)(F)F)n[nH]c3c(C)c2F)C(C#N)=C(C)N1C" . Does its IC50 lie strictly below 20 nM?
Out: YES

In: Consider "CCc1c(F)c(C2C(C#N)=C(C)N(C)C(C)=C2C#N)cc2c(NC(=O)c3c(Cl)cnn3C)n[nH]c12" . Does its IC50 lie strictly below 20 nM?
Out: NO

In: Consider "CCc1ccccc1C(=O)Nc1n[nH]c2c(C)c(F)c(C3C(C#N)=C(C)N(C)C(C)=C3C#N)cc12" . Does its IC50 lie strictly below 20 nM?
Out: YES

###

Target: GST-AMPKα2/ß1/γ1 complex (full-length human AMPKα2) (Homo sapiens, UniProt P54619+P54646+Q9Y478)
Assay: AMPK high ATP assay (TR-FRET-based AMPK activity inhibition assay)
Conditions: ATP concentration of 1 mM; median; read-out: AMPK high ATP assay IC50 [mol/l] (median)
quantity-name: IC50 (nM)
Answer format: numeric, nM implied, no suffix.

For reference, reported IC50 for CCn1cc(C(=O)Nc2n[nH]c3c(C)c(F)c(C4C(C#N)=C(C)N(C)C(C)=C4C#N)cc23)c(C)n1 [Example 12] stands at 15.7

For reference, reported IC50 for CC1=C(C#N)C(c2cc3c(NC(=O)c4ccccc4Cl)n[nH]c3c(I)c2F)C(C#N)=C(C)N1C [Example 2] stands at 13

For reference, reported IC50 for CCn1nc(C)cc1C(=O)Nc1n[nH]c2c(C)c(F)c(C3C(C#N)=C(C)N(C)C(C)=C3C#N)cc12 [Example 5] stands at 3.74

For reference, reported IC50 for CC1=C(C#N)C(c2cc3c(NC(=O)Cc4ccc(C)nc4)n[nH]c3c(C)c2F)C(C#N)=C(C)N1C [Example 14] stands at 21.5

For reference, reported IC50 for CC1=C(C#N)C(c2cc3c(NC(=O)c4ccccc4Cl)n[nH]c3c(C)c2F)C(C#N)=C(C)N1C [Example 6] stands at 3.65
